# Tested on: PDE IV
# assay text: Inhibition of PDE IV activity (method of Bauer and Schwabe, adapted to microtiter plates)
# Format: biochemical
Label Y when Inhibition of PDE IV activity, -log IC50 is strictly below 8; at or above that, label N.

[[record]]
record_smiles = "COc1ccc(-c2nc3cnccc3[nH]2)c2cc(C3CCCC3)oc12"
target_or_test_system = "PDE IV"
answer_label = "Y"

[[record]]
record_smiles = "COc1ccc(-c2nc3cnccc3[nH]2)c2c1OC1(C=C2)CCCC1"
target_or_test_system = "PDE IV"
answer_label = "Y"

[[record]]
record_smiles = "COc1ccc(-c2nc3ncccc3[nH]2)c2cc(C(C)C)oc12"
target_or_test_system = "PDE IV"
answer_label = "Y"

[[record]]
record_smiles = "CC(C)c1cc2c(-c3nc4cnccc4[nH]3)ccc(OC(F)F)c2o1"
target_or_test_system = "PDE IV"
answer_label = "N"


Alright, here's another molecule for you.
input: Here's an entry: "COc1ccc(-c2nc3ncccc3[nH]2)c2c1OC1(C=C2)CCCC1" . Is its Inhibition of PDE IV activity, -log IC50 below 8?
output: Y
